# ASSAY DETAILS: Metabolic stability in rat liver microsomes assessed as parent compound remaining measured after 30 mins in presence of NADPH by LC-MS/MS analysis
# Assay type: ADME, Microsome
# APPLIED CONDITIONS: read-out: Stability
MEASURED PARAMETER: remaining at 0.5 h

Field: example entries. Status: answers known.
MOLECULE: CC(C)(C)OC(=O)NC(c1ccccc1)C(F)(F)C(=O)c1ccc(Cl)cc1 (stereo unspecified)
remaining at 0.5 h: < 1%
--
MOLECULE: O=C(C12CC3CC(CC(C3)C1)C2)C(F)(F)C(O)c1ccc(Cl)cc1 (stereo unspecified)
remaining at 0.5 h: < 1%
--
MOLECULE: CC(C)(C)OC(=O)NC(c1ccc(F)cc1)C(F)(F)C(=O)c1ccc2ccccc2c1 (stereo unspecified)
remaining at 0.5 h: < 1%
--
MOLECULE: CC(C)(C)OC(=O)NC(c1ccc(F)cc1)C(F)(F)C(=O)c1ccc(Cl)cc1 (stereo unspecified)
remaining at 0.5 h: < 1%
--
MOLECULE: CC(C)(C)OC(=O)NC(c1cccc(Br)c1)C(F)(F)C(=O)c1ccc(Cl)cc1 (stereo unspecified)
remaining at 0.5 h: < 1%

Proceed to the following item.
Please fill in: remaining at 0.5 h reported for O=C(c1ccc2ccccc2c1)C(F)(F)C(O)c1ccc(F)cc1 (stereo unspecified) = < 1%
